# assay-procedure: yeast display, Sf9 membrane polyspecificity reagent, FACS + sequencing; frameworks hold sequencing errors
assay-endpoint: polyreactivity (PSR sort gate)

Use the examples below as a reference point.
QVQLVESGGGLVQAGGSLRLSCAASVRTFGGYAMGLYRQAPGKERELVAAITSDTGTNYADSVKGRFTISRDNAKNTVYLEMNSLKPEDTAVYYCAADTPYSYYLNIYWKGMDYWGQGTQVTVSS
low polyreactivity
QVQLVESGGGLVQAGGSLRLSCAASGFTFRWYAMGWYRPAPGKERELVADISRGGSTNYADSVKGRFTISRDNAKNTVYLQMNSLKPEDTAVYYCAAVVYRATYRVGGYLWYYYWGQGTQVTVSS
high polyreactivity
QVQLVESGGGLVQAGGSLRLSCAASGFTFWRYAMGWYRQAPGKERELVAAISRTGGRTYYADSVKGRFTISRDNAKNTVYLQMNSLKPEDTAVYYCAAVKYETYRYNYDYWGQGTQVTVSS
high polyreactivity
QVQLVESGGGLVQAGGSLRLSCAASGFTFLAYSMGWYRQAPGKERELVAAIRWSGRRTYYADSVKGRFTISRDNAKNTVYLQMNSLKPEDTAVYYCAADTRRVREYNYWGQGTQVTVSS
low polyreactivity
QVQLVESGGGLVQAGGSLRLSCAASGFTFSRNGMGWYRLAPGKERELVADITLSGASTYYADSVKGRFTISRDNAKNTVYLQMKSLKPEDTAVYYCAADPYHWRWGWRHDYWGQGTQVTVSS
low polyreactivity
QVPLVESGGGLVQAGGSLRLSCAASGRTFGRYAMGWYRQTHGKERELVASISWRGGSTYYADSVKGRFTISRDYAKNTVFLQMNSLKPEDTAVYYCAVRFLTYWHGSYWYDYWGQGTQVTVSS
high polyreactivity
QVQLVESGGGLVQAGGSLRLSSAASGITFFHYAMGWYRQEPGKERELVATISWRAGSTYADSVKGRFTISRDNAKKTVYLQMNSLKPEDTAVYYCNAVWTYHSGSGGYLFDYWGLGTQVTVSS
low polyreactivity
QVQLVESGGGLVQAGGSLRLTCAASGITFKFYAMGWYRQAPGKESELVAAITSGGGSTYYADSVKGRFTISRDNAKNTVYLQMNILKPEDTAVYYCNTYSIAYYSPCYDYWGQGTQVNVSS
high polyreactivity
QVQLVESGGGLVQAGGSLRLSCAASGSTFKYYAMGWYRQAPGKEREFVAAITANGGRTYYADSVKGRFTISRDNAKNTVYLQMNSLKPEDTAVYYCAARTWYYYVYGYESWGQGTQVTVSS
high polyreactivity
QVQLVESGGGLVQAGGSLRLSCSASGSNFGYYAMGWYRQAPGKERELVASITWTGGSTYYADSVKGRFTISRDNAKNTVYLQMNSLKPEDTAVYYCAAQLEPSYWFWTGYGYWGQGTQVTVSS
high polyreactivity

We now examine a further sequence.
So for QVQLVESGGGLVQAGGSLRLSCAASGFTFYPYAMGWYRQAPGKERELVAAITSGGRTNYADSVKGRFTISRDNAKNTVYLQMNSLKPEDTAVYYCNTVSWWGRNYQDEYYYWGQGTQVTVSS , the logged polyreactivity (PSR sort gate) turned out to be high polyreactivity

---

# assay-procedure: yeast display, Sf9 membrane polyspecificity reagent, FACS + sequencing; frameworks hold sequencing errors
assay-endpoint: polyreactivity (PSR sort gate)

QDQLVESGGGLVQAGGSLRLSCDASGSIFSPYAMGWYRQAPGKEREFVAAITYSGGRTYYADSVKGRFTISRDNPKNTVYFQMNSLKPEDTAVYYCAATYSSYDHYWFVYWGQATQVTVSS
low polyreactivity
QVQLVESGGGLVQAGGSLRLSCAASGSTLLSNAMGWYTQAPGKERELVAAINYSGGRTYYADSVKGRFTISRDNAKNTVYLQMNSLKPEDTAVYYCNALSSGHGSSSRYDYWGQGTQVTVSS
low polyreactivity
QVQLVESGGVLVQAGGSLRLSCAASGSTFGPNAMGWYRQAPGKERELVAAIRSNGGRTYYADSVKGRFTISRDNAKNTVYLQMNSLKPEDTAVYYCAAPHYPYDTPYGYWGQGTQVTVSS
low polyreactivity
QVQLVESGGGLVQAGGSLRLSCAASGRISVNYAMGWYRQAPGKERELVAGITSRGGSTYYADSVKGRFTISRDNAKNTVYLQMNSLKPEDTAVYYCAARWGGLWYYYWGQGTQVTVSS
high polyreactivity
LVQLVESGGGLVQAGGSLRLSCAASGFIFFGEYVMGWYRQAPGKEREFVAAITDSDGSTYYADSVKGSFTISRDNGKNTVYLQMISLKPEDTAVYYCAAERVYSDMDYWGQGTQVTVSS
low polyreactivity
QVQLEESGGGLVQAGGSLRLSCAASGFTFTPNAMGWYRQAPGKERELVAAINWSGGRTYYADSVKGRFTISRDNAKNTVYLQMNSLKPEDTAVYYCNVLKGRSYYPGMDYWGQGTQVTVSS
high polyreactivity
QVQLVESGGGLVQAGGSLRLSCAAYGRTFNPYAMGWYRQAPGKERELVARITWSGGRTYYADSVKGRFTISRDNAKNTVYLQMNSLKPEDTAVYYCAARYSKYLYGRFESWGQGTQVTVSS
high polyreactivity
QVQLEESGGGLVQAGGSLRLSCAASGSTFDNNGMGWYRQATGKERELVASITFNVGSTYYADSVKGRFTMSRDNAKNTVYLQMNSLKPEDTAVYYCGADDLNLSQALGYDFWGQGTQVTVSS
low polyreactivity

Field polyreactivity (PSR sort gate) (entry QVQLVESGGGLVQAGGSLRLSCAASGFTFRVYAMGWYIQAPGKERELVAAITKRGGTTYYADSVKGRFTISRDNAKNTVYLQMNSLKPEDTAVYYCATENTPHYASHGYLGQGTQVTVSS ) reads high polyreactivity

What the record says about QVQLVESGGGLVQAGGSLRLSCAASGGIFGLYTMGWYRQAPGKERELVAGISKRGTRTRYADSVKGRFTISRDHAKNTVYLQMNSLKPEDTAVYYCNADYYVSKLDYWGQGTQVTVSS : polyreactivity (PSR sort gate) is high polyreactivity

Sample QVQLVQSGAGLVQARGSLRLSCAASGSTFRRNVMGWYRQAPGTERELVAAISWSGTSTNYADSVKWRFTISRDNAKNTVYLQMNSLKPEDTAVYYCATQSLYYRWGLDYWGQGTQVTVSS ; polyreactivity (PSR sort gate) observed: high polyreactivity

---

# assay-procedure: yeast display, Sf9 membrane polyspecificity reagent, FACS + sequencing; frameworks hold sequencing errors
assay-endpoint: polyreactivity (PSR sort gate)

QVQLVESGGGLVQAGGSLRLSCEASGSTFLRNAMGWYRQAPGKKGSWVATISYAGDSTYYADSVKGRFTLSRDNAKNTVYLQMNSLKPEDTAVYYCAASYSLTFWDKDDYWGQGTQVTVSS
low polyreactivity
QVQLVESGGGLVQAGGSLRLSCAASGFIIDRYAMGWYRQAPGKERELVARISWSGGSTYYADSVKGRFTISRDNAKNTVYLQMNSLKPEDTAVYYCNKAAWWLQSRYDYWGQGTQVTVSS
high polyreactivity
QVQLVESAGGLVQAGGSLRLTCAASGLTFRVFAMGWYRQAPGKERELVAAISSRGGSTYYADSVKGRFTISRDNAKYTVYLQMNSLKPEDTAVYDCYARGQGGYWGQGTQVTVSS
high polyreactivity
QVQLVESGGVLVQAGGSLRLSCAASGFTFSLYGMGWYRQAPGKEREFVAAIRSGGSTNYADSVKGRFTISRDNAKNTVYLQMNRLKPEDTAVYYCATDIHSVHNNRDKHDYDYWGQGTQVTVSS
low polyreactivity

Next:
Form: sequence = QVQLVESGGGLVQAGGSLRLSCAASGSTFNSYAMGWYRQAPGKEWELVAAITSSVGSTYYADSVKGRFTISRDNAKNTVYLQMNSLKPEDTAVYYCAADYFSFWYFSGYDYWGQGTQVTVSS ; polyreactivity (PSR sort gate) = low polyreactivity

---

# assay-procedure: yeast display, Sf9 membrane polyspecificity reagent, FACS + sequencing; frameworks hold sequencing errors
assay-endpoint: polyreactivity (PSR sort gate)

Example cases with answers are listed next.
QVQLVESGGGLVQAGGSLRLSCAASGYTFFLNVMGWYRQAAGKEWELVAAISYSGGSTNYADSVKGRFTISRDNAKNTVYLQMNSLKPEDTAVYYCAVTTYSGLYGFEYWGQGTQVTVSS
low polyreactivity
QVQLVESGGGLVQAGGSLRLSCAASGFTFYTNAMGWYRQAPGKERELVAGINSGSSTYYADSVKGRFTISRDNAKNTVYLQMNSLKPEDTAVYYCAARARRRYYYWGQGTQVTVSS
high polyreactivity
QVQLVESGGGLVQAGCSLRLSCAASGSILWHYAMGWYRPAPGKERELVAAISGSGRTNYADSVKGGFTISRDNAKNTVYLQLNSLKPEDTAVYYGARVHGTSESKYYYWGQGTQVTVSL
low polyreactivity
QVQLVESGGGLVQAGGSLRLSCAASGFTLTSYAMGWYRQAPGKERELVAGISRGGITYYADSVKGRFTISRDNAKNTVYLQMNSLKPEDTAVYYCNARRTRRWPTTPEFTNFGYWGQGTQVTVSS
high polyreactivity
QVHLVESGGGLVHAGGSLRLSCAASGIIFSYYAMGWYRQAPVKERELVAAISRSGVRTYFSDSVKGRFTISRDNAKNTVYLQMNSLKPEDTSVYYCNAEFSPYPYDYWGQGTQVTVSS
high polyreactivity

According to the records, this sequence QVQLVESGGGLVQAGGSLRLSCAASGSTFKHYAMGWYRQAPGKERELVAAISSGGSTKYADSVKGRFTISRDNAKNTVYLQMNSLKPEDTAVYYCAARSFFKMYYWGQGTQVTVSS displays polyreactivity (PSR sort gate) of low polyreactivity

Ref: the nanobody polyreactivity screen of Harvey et al. (2022)
